System: P388
Experiment: In vitro inhibitory concentration required against murine P388 leukemic cells proliferation
Assay type: functional, cell-based
Conditions: Mus musculus
measured-parameter: IC50 (nM)
Please give a number only; it is taken to be in nM.

Here are 6 compounds together with their reported answers.
- C[C@@H]1CCC2[C@@H](C)[C@@H](O[C@H](C#N)c3ccccc3)O[C@@H]3O[C@]4(C)CCC1[C@@]23OO4 (some centres not stated): 48
- C[C@@H]1CCC2[C@@H](C)[C@@H](O[C@@H](C#N)c3ccccc3)O[C@@H]3O[C@]4(C)CCC1[C@@]23OO4 (some centres not stated): 238
- C[C@@H]1CCC2[C@@H](C)[C@@H](OC(C#N)c3ccc(Br)cc3)O[C@@H]3O[C@]4(C)CCC1[C@@]23O4 (some centres not stated): 24200
- C[C@@H]1CCC2[C@@H](C)[C@@H](O[C@H](C#N)c3ccc(Br)cc3)O[C@@H]3O[C@]4(C)CCC1[C@@]23OO4 (some centres not stated): 11
- CC[C@]1(O)C[C@H]2CN(CCc3c([nH]c4ccccc34)[C@@](C(=O)OC)(c3cc4c(cc3OC)N(C=O)[C@H]3[C@@](O)(C(=O)OC)[C@H](OC(C)=O)[C@]5(CC)C=CCN6CC[C@]43[C@@H]65)C2)C1 [VINCRISTINE]: 2
- C[C@@H]1CCC2[C@@H](C)[C@@H](OCC#N)O[C@@H]3O[C@]4(C)CCC1[C@@]23OO4 (some centres not stated): 1860

We next turn to a different compound, shown below.
Query C[C@@H]1CCC2[C@@H](C)[C@@H](O[C@@H](C#N)c3ccc(Br)cc3)O[C@@H]3O[C@]4(C)CCC1[C@@]23OO4 (some centres not stated) yields IC50 of 12

====

Listed compounds paired with reported IC50
Test system: NIH3T3
Experiment: In vitro inhibitory concentration required against NIH3T3 cells proliferation
Assay type: functional, cell-based
Conditions: Mus musculus
Please give a number only; it is taken to be in mM.

* C[C@@H]1CCC2[C@@H](C)[C@@H](O[C@H](C#N)c3ccc(Br)cc3)O[C@@H]3O[C@]4(C)CCC1[C@@]23OO4 (some centres not stated) | 5.12

Query C[C@@H]1CCC2[C@@H](C)[C@@H](O[C@@H](C#N)c3ccc(Br)cc3)O[C@@H]3O[C@]4(C)CCC1[C@@]23OO4 (some centres not stated) yields IC50 of 3.05

====

System: P388
Test: Percent of cells in G1 phase of cell cycle, was determined after 21 hrs of incubation of P388 cells
Format: functional, Mus musculus
measured-parameter: G1 (%)
Please give a number only; it is taken to be in %.

• C[C@@H]1CCC2[C@@H](C)[C@@H](O[C@H](C#N)c3ccc(Br)cc3)O[C@@H]3O[C@]4(C)CCC1[C@@]23OO4 (some centres undefined) = 63
• C[C@@H]1CCC2[C@@H](C)[C@@H](OCC#N)O[C@@H]3O[C@]4(C)CCC1[C@@]23OO4 (some centres undefined) = 65
• C[C@@H]1CCC2[C@@H](C)[C@@H](O[C@@H](C#N)c3ccc(Br)cc3)O[C@@H]3O[C@]4(C)CCC1[C@@]23OO4 (some centres undefined) = 62

We next turn to a different compound, shown below.
I looked up C[C@@H]1CCC2[C@@H](C)[C@@H](O[C@@H](C#N)c3ccccc3)O[C@@H]3O[C@]4(C)CCC1[C@@]23OO4 (some centres undefined) and its G1 for P388 was 67
